Reported enrichment ratio values for a set of variants
B1: PhoQ; a variant is named by its letters at X, in order, P23837 (parent)
chain: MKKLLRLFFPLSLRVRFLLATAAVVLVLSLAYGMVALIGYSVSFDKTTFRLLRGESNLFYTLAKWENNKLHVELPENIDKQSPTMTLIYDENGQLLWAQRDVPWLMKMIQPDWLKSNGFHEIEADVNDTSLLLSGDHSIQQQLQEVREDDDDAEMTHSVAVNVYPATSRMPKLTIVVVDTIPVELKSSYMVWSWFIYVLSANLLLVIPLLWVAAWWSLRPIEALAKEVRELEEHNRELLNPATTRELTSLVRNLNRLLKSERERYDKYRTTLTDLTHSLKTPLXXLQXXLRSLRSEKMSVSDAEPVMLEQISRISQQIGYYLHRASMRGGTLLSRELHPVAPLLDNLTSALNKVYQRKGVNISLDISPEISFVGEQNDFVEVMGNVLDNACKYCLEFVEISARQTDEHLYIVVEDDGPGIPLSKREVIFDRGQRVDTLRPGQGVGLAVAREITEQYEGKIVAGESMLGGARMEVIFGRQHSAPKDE

# Variants of: B1
# assay_details: enrichment ratio after two sorts for PhoP signalling (ratio (wild type AVST 3.29)); higher = more functional
# reported_conditions: with PhoP (E. coli)
The full ranking holds about 140,000 sequences; the median of “enrichment ratio after two sorts for PhoP signalling” is about 0, and the highest 2% start at about 11. What follows is part of a selection rich in the highest values, with near analogues and random picks from the rest.

variant_string	enrichment ratio
DIVY	≤ 0.25
DYQS	≤ 0.25
AWWN	≤ 0.25
SETK	≤ 0.25
HFLM	≤ 0.25
GSHA	≤ 0.25
SGFA	≤ 0.25
